# TGT: T1, recombinant human CFD, His-tagged (human, UniProt P00746 26-253)
# T1 construct: also called rhCFD-His
# TEST NAME: SPR MX96
The entries below are paired with their reported Kd.
Number only, in nM; omit the unit.

In the examples that follow, each entry is paired with its recorded Kd.
| BINDER | ENDPOINT UNIT | Kd |
| --- | --- | --- |
| KCD124 (antibody, V domains shown, chimeric) VH: EVQLQQSGPELVKPGASVKISCKASGYTFTDHYMNWVKQSHGKSLEWIGDINPNNGGTSYNQKFKGKATLTVDKSSSTAYMELRSLTSGDSAVYYCTREGASFAFWGQGTLVTVSA VL: DVLMTQTPLSLPVSLGDQASISCRSSQSIVHSNGDTYLEWYLQKPGQSPKLLIYKVSNRFSGVPDRFSGSGSGTDFTLKISRVEAEDLGVYYCFQGSHVPLTFGAGTKLELK | nM | 3.3 |
| KCD102 (antibody, V domains shown, chimeric) VH: QVQLQQPGAELVRPGTSVKLSCKASGYTFTSYWMHWVKQRPGQGLEWIGVIDPSDSYTNYNQKFKGKATLTVDTSSSTAYMQLSSLTSEDSAVYYCARNGYDGSMDYWGQGTSVTVSS VL: EIQMTQTTSSLSASLGDRVTISCRASQDISNYLNWYQQKPDGTVKLLIYYPSRLHSGVPSRFSGSGSGTDYSLTISNLEQEDFATYFCQQGNTLPYTFGGGTKLEIK | nM | 2.5 |
| KCD219 (antibody, V domains shown) VH: QVQLQQSGPELVKPGASVKISCKASGYTFTDYYINWVKQRPGQGLEWIGWIFPGSGSTYYNEKFKGKATLTVDKSSSTAYMLLSSLPSEDSAVYFCARYGYYGSSFYAMDYWGQGTSVTVSS VL: DIQMTQSPASLSVSVGETVTITCRASENIYSNLAWYQQKQGKSPQLLVYAATNLADGVPSRFSGSGSGTQYSLKINSLQSEDFGSYYCQHFWGSPPTFGGGTKLEIK | nM | 3 |
| KCD057 (antibody, V domains shown) VH: EVKLVESGGGLVQPGGSLKLSCAASGFTFSNYIMSWVRQTPEKRLEWVAYITNGGGATYYPDTVKGQFTISRDNAKNTLYLQMSSLKSEDTAIYYCARHDFYALDFWGQGTSVTVSS VL: DIQMTQSPSSLSASLGGKVTITCKASQDINKYIAWYQHKPGKGPRLLIHYTSTLQPGIPSRFSGSGSGRDYSFSISNLEPEDIATYYCLKYDNLLYTFGGGTKLEIK | nM | 2.7 |

Attention now shifts to the item below.
Item under review: KCD001 (antibody, V domains shown) VH: EVQLQQSGPELVKPGASVKISCKASDNSFTGYYMHWVKQSHGNILDWIGYIDPYNGVSSYNQKFKGKATLTVDKSSSTAYMEIRSLTSEDSAVYYCASYYGSSPYWYFDVWGTGTTVTVSS VL: QIVLSQSPAILSASPGEKVTMTCRASSSVSYMHWYQQKPGSSPKPWIYATSNLASGVPARFSGSGSGTSHFLTISRLEAEDAATYFCQQWSSNPYTFGGGTKLEIK . Reported Kd?
0.22

These measurements were taken from patent US20180334496A1.
